- Test system: Tubulin (Sus scrofa, UniProt P02550+P02554)
- Construct: Tubulin is purified from pig brain according to published methods
- Sequence (P02550 whole entry): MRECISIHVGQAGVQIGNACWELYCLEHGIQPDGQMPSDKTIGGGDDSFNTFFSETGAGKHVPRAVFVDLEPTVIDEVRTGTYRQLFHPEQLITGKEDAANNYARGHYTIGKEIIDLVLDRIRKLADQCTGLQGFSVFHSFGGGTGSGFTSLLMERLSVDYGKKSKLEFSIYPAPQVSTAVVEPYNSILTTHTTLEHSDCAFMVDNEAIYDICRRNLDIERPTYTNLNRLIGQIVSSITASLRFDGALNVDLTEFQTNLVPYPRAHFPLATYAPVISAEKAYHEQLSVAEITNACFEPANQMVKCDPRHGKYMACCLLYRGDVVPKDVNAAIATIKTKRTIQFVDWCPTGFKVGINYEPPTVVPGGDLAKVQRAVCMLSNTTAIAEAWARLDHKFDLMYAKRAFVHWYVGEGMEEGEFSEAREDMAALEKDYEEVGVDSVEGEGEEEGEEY
- Sequence (P02554 whole entry): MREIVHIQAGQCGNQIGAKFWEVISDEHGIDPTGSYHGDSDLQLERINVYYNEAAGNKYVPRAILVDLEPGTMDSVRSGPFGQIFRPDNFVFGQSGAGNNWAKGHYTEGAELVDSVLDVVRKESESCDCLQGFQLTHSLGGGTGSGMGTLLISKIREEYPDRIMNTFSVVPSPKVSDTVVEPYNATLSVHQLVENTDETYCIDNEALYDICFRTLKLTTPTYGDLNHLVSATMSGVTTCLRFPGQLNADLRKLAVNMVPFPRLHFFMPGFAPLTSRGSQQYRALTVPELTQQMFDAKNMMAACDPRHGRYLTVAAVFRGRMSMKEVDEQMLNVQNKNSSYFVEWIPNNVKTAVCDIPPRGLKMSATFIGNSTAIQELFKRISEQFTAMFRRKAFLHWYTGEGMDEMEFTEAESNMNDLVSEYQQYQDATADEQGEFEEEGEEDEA
- Protocol text: Evaluation of the inhibition of tubulin polymerization (turbidimetry at 350 nm)
- Experimental parameters: concentration that inhibits the rate of polymerization by 50%; pig brain tubulin 10 μM
Readout type: IC50 (nM)
Supply the numeric figure in nM, leaving out any unit text.

Exam item: Any idea what IC50 was measured for ON=C(c1n[nH]c2c1C=CC(c1ccccc1)(c1ccccc1)C2)C1CC1 (single isomer, unassigned) [Example 6-1B] ?
Marked response: 3000

Exam item: I have this compound here, C1=CC(c2ccccc2)(c2ccccc2)Cc2[nH]nc(/C(=N\OCc3ccccc3)C3CC3)c21 , and I need its recorded IC50.
Marked response: 1300

Exam item: // returns reported IC50 for input CON=Cc1n[nH]c2c1C=CC(c1ccccc1)(c1ccccc1)C2 (mixture of isomers)
Marked response: 6000

Exam item: Entry FCCO/N=C(/c1n[nH]c2c1C=CC(c1ccccc1)(c1ccccc1)C2)C1CC1 [Example 6-11B] : reported IC50 = ?
Marked response: 1300

Exam item: Need IC50, item ON=C(c1n[nH]c2c1C=CC(c1ccccc1)(c1ccc(F)cc1)C2)C1CC1 (single isomer, unassigned) [Example 10-5B]
Marked response: 6000

Exam item: Fill blank: measured IC50 of the compound O/N=C(\c1n[nH]c2c1C=CC(c1ccc(F)cc1)(c1ccc(F)cc1)C2)C1CC1 is ____.
Marked response: 1500

----------
- Test system: Tubulin (Sus scrofa, UniProt P02550+P02554)
- Construct: Tubulin is purified from pig brain according to published methods
- Protocol text: Evaluation of the inhibition of tubulin polymerization (turbidimetry at 350 nm)
- Experimental parameters: concentration that inhibits the rate of polymerization by 50%; pig brain tubulin 10 μM
Consider the following compounds; for each one, report its pIC50.
When answering, recall that pIC50 equals minus log10 of the concentration in mol/L, and write that number alone.

Exam item: Would you mind telling me what pIC50 value was observed for CCOC(=O)c1n[nH]c2c1C=CC(C)(c1ccccc1)C2 (racemic) [Example 9-1] ?
Marked response: 4.74

Exam item: Requested read-out: pIC50. Entry: O=C(c1n[nH]c2c1C=CC(c1ccccc1)(c1ccc(F)cc1)C2)C1CC1 (single isomer, unassigned) [Example 10-4C]
Marked response: 5.82

Exam item: Requested read-out: pIC50. Entry: CCOC(=O)c1n[nH]c2c1C=CC(c1ccccc1)(c1ccc(F)cc1)C2 (single isomer, unassigned) [Example 10-3B]
Marked response: 6.00

Exam item: Requested read-out: pIC50. Entry: COC(=O)c1[nH]nc2c1C=CC(c1ccccc1)(c1ccccc1)C2 [Example 2-2]
Marked response: 5.90

Exam item: Given the entry O/N=C(/c1n[nH]c2c1C=CC(c1ccccc1)(c1ccc(F)cc1)C2)C1CC1 (single isomer, unassigned) [Example 10-5D] , report its measured pIC50.
Marked response: 5.82

Exam item: Need pIC50 of C=CCO/N=C(\c1n[nH]c2c1C=CC(c1ccccc1)(c1ccccc1)C2)C1CC1 [Example 6-6A] , thanks.
Marked response: 6.00

Exam item: Could you share which pIC50 value was measured for C=CCO/N=C(/c1n[nH]c2c1C=CC(c1ccccc1)(c1ccccc1)C2)C1CC1 [Example 6-6B] ?
Marked response: 5.92
